# Tested target: CaHof1
# Method description: SPOT peptide array binding signal intensity (averaged, normalized) (arbitrary units (background-subtracted, floor 0; scale differs between SH3 domains)); higher = stronger binding of the SH3 domain to the peptide
Quantity measured: SPOT peptide array binding signal intensity

Binder	Inequality operator	Test value
RRRRRPHRIERPLSN	≤	0
SKAKRPKFLLDLQIK	=	0.5
DKSRPPRPPPKPLHL	=	0.5
SSTPTTPERPKRKSG	=	0.5
NPTKSPPPPPSPSTM	≤	0
FLIKFTPKFPQSIDH	=	6.5
LKQRFFLMFPKSIIW	=	0.5
